reported-endpoint: intrinsic clearance, rat liver microsomes (mL/min/kg)

Please review the following examples before continuing.
1. CN(CCSc1ccc2nnc(C(F)F)n2n1)Cc1ccccc1	3180
2. O=C(Nc1cccnc1)c1ccccc1Cc1ccccc1	461

1. CCOc1ncccc1-c1cc(Cl)ccc1O
2. OC1(c2cccnc2F)CCN(Cc2ccc(-c3ccc(F)cc3)o2)CC1
**Q:** Between item 1 and item 2 , which reported intrinsic clearance, rat liver microsomes is smaller? Mark your answer with the label of the selected entry.
**A:** 2

----------
The reader will find reported intrinsic clearance, human liver microsomes values listed item by item below.

Please review the following examples before continuing.
1. Cc1ccnc(NCc2cccnc2)n1	≤ 4.74 mL/min/kg
2. Cn1cc(C(=O)N2CCC(CC(=O)O)CC2)cn1	≤ 4.74 mL/min/kg

We now examine a further compound.
**Q:** In one line, give reported intrinsic clearance, human liver microsomes of the entry "COC(C)(C)CCNC(=O)CC1CC(C)(C)NC(C)(C)C1" .
**A:** ≤ 4.74 mL/min/kg

----------
reported-endpoint: intrinsic clearance, human liver microsomes (mL/min/kg)

I. COc1cccc(CC(=O)N2CCOC(c3cc(Nc4nnc(C)s4)cc(C)n3)C2)c1 (configuration not stated)
II. COc1cc(C)nc(N2CCN(c3ccc4ccccc4n3)CC2)n1
**Q:** Just curious, which one has the larger intrinsic clearance, human liver microsomes reading, I or II ? Mark your answer with the label of the selected entry.
**A:** I

1. COCC(C)(C)CNC(=O)C1(Cn2cccn2)CC1
2. Cc1ccnc(-n2nccc2NC(=O)NC2(C)CCC2)c1
**Q:** Just curious, which one has the larger intrinsic clearance, human liver microsomes reading, 1 or 2 ? Mark your answer with the label of the selected entry.
**A:** 2

1. Fc1cncc(-c2cnc(NCc3ccc(Cl)c(F)c3)nc2)c1
2. Cn1cc(CN2CCN(c3ccccc3O)CC2)c(-c2ccncc2)n1
**Q:** Just curious, which one has the larger intrinsic clearance, human liver microsomes reading, 1 or 2 ? Mark your answer with the label of the selected entry.
**A:** 2

a. COc1ccc(NC(C)=O)cc1NC(=O)CN(Cc1ccccc1)C(C)C
b. NC(=O)c1noc([C@@H](CCCC2CCCCC2)CC(=O)NO)n1
c. CCNc1ccnc(N(C)Cc2nc3ccccc3n2C)n1
d. Cc1cccc(NC(=O)c2cccnc2N2CCCCC2)n1
e. Cc1ccc(C2=NC3(CCN(Cc4ccc(F)cc4)CC3)NC2=O)cc1
**Q:** hey, can you rank those molecules up there by intrinsic clearance, human liver microsomes? biggest number first please Please write the labels in the order that was asked for.
**A:** a, d, c, e, b
(a: 1340 mL/min/kg, d: 120 mL/min/kg, c: 29.5 mL/min/kg, e: 11.2 mL/min/kg, b: 7.31 mL/min/kg)

a. COc1nc2c(cc1CNC(=O)N1CCC[C@@H]1CO)C(=O)N(C1CCCC1)C2
b. COc1ccc(-c2nc3cc(C)ccc3cc2CN(C)Cc2nccn2C)cc1
**Q:** Just curious, which one has the larger intrinsic clearance, human liver microsomes reading, a or b ? Mark your answer with the label of the selected entry.
**A:** b
(b: 296 mL/min/kg, a: 8.55 mL/min/kg)

A. Cc1cc(C)n(-c2ccc(CNC(=O)C3CCC3)cn2)n1
B. O=C(Nc1ccc(C(F)(F)F)cc1)c1ccccn1
**Q:** Between item A and item B , which reported intrinsic clearance, human liver microsomes is smaller? Mark your answer with the label of the selected entry.
**A:** A
(A: 9.73 mL/min/kg, B: 31.9 mL/min/kg)

a. Fc1cccc(N[C@H]2CCCN[C@H]2Cc2ccccc2)c1
b. CC(=O)NCCNc1cc(Cl)nn2c(-c3cccc(S(=O)(=O)N(C)C)c3)c(C)nc12
**Q:** Between item a and item b , which reported intrinsic clearance, human liver microsomes is smaller? Mark your answer with the label of the selected entry.
**A:** a
(a: 61 mL/min/kg, b: 228 mL/min/kg)

A. O=C(Nc1cc(Cl)ccc1Cl)c1cccc(N2CCCC2=O)c1
B. C=CC(=O)Nc1cccc(Nc2nc(Nc3ccc(OCCOC)cc3)ncc2F)c1
**Q:** Between item A and item B , which reported intrinsic clearance, human liver microsomes is smaller? Mark your answer with the label of the selected entry.
**A:** B
(B: 32.1 mL/min/kg, A: 156 mL/min/kg)
